The origin of these recorded values is the Immune Epitope Database (IEDB).

experimental-target: HLA-B*15:01
assay-name: IEDB peptide-MHC binding, purified MHC/competitive/radioactivity; filed as Kd, often an IC50 or EC50 that approximates it; bounds were set here for any values at or beyond the usual limits of such assays
experimental-setup: source organism: Dengue virus 2 Jamaica/1409/1983
Reported values of Kd for individual entries
Provide only the numeric value, understood in nM.

Some solved cases for reference:
{"sequence-data": "LLSPVRVPNY", "display-unit": "nM", "Kd": 2.99}
{"sequence-data": "KQEHETSWHY", "display-unit": "nM", "Kd": 125}
{"sequence-data": "FTIMAAILAY", "display-unit": "nM", "Kd": 2.18}

Would you kindly look at the next entry?
Q. Quick check: Kd of LMRRGDLPVW ?
A. 159

----------
experimental-target: HLA-A*24:02
assay-name: IEDB peptide-MHC binding, purified MHC/competitive/radioactivity; filed as Kd, often an IC50 or EC50 that approximates it; bounds were set here for any values at or beyond the usual limits of such assays
experimental-setup: source organism: Dengue virus 1 Brazil/97-11/1997
Reported values of Kd for individual entries
Provide only the numeric value, understood in nM.

{"sequence-data": "AMVLSIVSLF", "display-unit": "nM", "Kd": 580}

Would you kindly look at the next entry?
Q. Kindly state the measured Kd obtained for AFPQSNAVI with HLA-A*24:02.
A. 2900

----------
Reported values of Kd for individual entries
experimental-target: HLA-A*02:03
assay-name: IEDB peptide-MHC binding, purified MHC/competitive/radioactivity; filed as Kd, often an IC50 or EC50 that approximates it; bounds were set here for any values at or beyond the usual limits of such assays
experimental-setup: source organism: Dengue virus 4 Philippines/H241/1956
Provide only the numeric value, understood in nM.

Some solved cases for reference:
{"sequence-data": "RLASMAICSA", "experimental-target": "HLA-A*02:03", "Kd (nM)": 24.5}
{"sequence-data": "KMKKKTWLV", "experimental-target": "HLA-A*02:03", "Kd (nM)": 31}

Would you kindly look at the next entry?
Q. Quick check: Kd of TLATGPVLTL ?
A. 28.3

----------
experimental-target: HLA-A*02:02
assay-name: IEDB peptide-MHC binding, purified MHC/competitive/radioactivity; filed as Kd, often an IC50 or EC50 that approximates it; bounds were set here for any values at or beyond the usual limits of such assays
experimental-setup: source organism: Vaccinia virus WR
pKd: −log10 of the molar value.
# label = T if pKd >= 6 else F

# example entries with known answers
{"sequence-data": "SVIFYFISI", "cat": "T"}
{"sequence-data": "TTELNIVDEI", "cat": "F"}
{"sequence-data": "EVLMSPCRM", "cat": "F"}
{"sequence-data": "LAEHISDSI", "cat": "T"}
{"sequence-data": "KQYIVATLMK", "cat": "F"}
{"sequence-data": "DVNSVQFSIL", "cat": "F"}

Q. Does pKd meet or surpass 6 for ELAYYNSCML ?
A. F

Q. Now try DQLVFNSISA .
A. T

Q. Now try LIVILFIMFM .
A. T

----------
experimental-target: HLA-B*46:01
assay-name: IEDB peptide-MHC binding, purified MHC/competitive/fluorescence; filed as Kd, often an IC50 or EC50 that approximates it; bounds were set here for any values at or beyond the usual limits of such assays
experimental-setup: source organism: Araucaria virus
property: Kd

Q. Quick check: Kd of GVPELGAFF ?
A. ≥ 20 µM

----------
experimental-target: HLA-B*44:02
assay-name: IEDB peptide-MHC binding, purified MHC/direct/fluorescence; filed as Kd, often an IC50 or EC50 that approximates it; bounds were set here for any values at or beyond the usual limits of such assays
experimental-setup: source organism: Cryptosporidium parvum
pKd: −log10 of the molar value.
property: pKd

Q. Quick check: pKd of RLLRMNNEN ?
A. ≤ 4.70

----------
experimental-target: HLA-B*07:02
assay-name: IEDB peptide-MHC binding, purified MHC/direct/fluorescence; filed as Kd, often an IC50 or EC50 that approximates it; bounds were set here for any values at or beyond the usual limits of such assays
experimental-setup: source organism: Camelpox virus M-96
pKd: −log10 of the molar value.
property: pKd

Q. Quick check: pKd of EYYFRNEVF ?
A. ≤ 4.70

----------
experimental-target: HLA-A*29:02
assay-name: IEDB peptide-MHC binding, purified MHC/direct/fluorescence; filed as Kd, often an IC50 or EC50 that approximates it; bounds were set here for any values at or beyond the usual limits of such assays
experimental-setup: source organism: Mycobacterium tuberculosis
property: Kd

Q. Kindly state the measured Kd obtained for QQDTNSAGL with HLA-A*29:02.
A. ≥ 20 µM

----------
experimental-target: HLA-B*51:01
assay-name: IEDB peptide-MHC binding, purified MHC/competitive/fluorescence; filed as Kd, often an IC50 or EC50 that approximates it; bounds were set here for any values at or beyond the usual limits of such assays
experimental-setup: source organism: Neembucu hantavirus
property: Kd

Q. Quick check: Kd of ILYMLSWGK ?
A. ≥ 20 µM

----------
experimental-target: HLA-A*26:02
assay-name: IEDB peptide-MHC binding, purified MHC/direct/fluorescence; filed as Kd, often an IC50 or EC50 that approximates it; bounds were set here for any values at or beyond the usual limits of such assays
experimental-setup: source organism: Mycobacterium tuberculosis str. Haarlem
property: pKd
Quick note: pKd values are minus log10 of concentrations in mol/L.

Q. Quick check: pKd of YVFYDGPPF ?
A. 7.96

----------
experimental-target: HLA-B*39:01
assay-name: IEDB peptide-MHC binding, purified MHC/competitive/fluorescence; filed as Kd, often an IC50 or EC50 that approximates it; bounds were set here for any values at or beyond the usual limits of such assays
experimental-setup: source organism: Escherichia coli 536
property: Kd

{"sequence-data": "RQRAVRMVL", "observed-result": "≥ 5 µM"}

Would you kindly look at the next entry?
Q. Quick check: Kd of QTDNDIWFW ?
A. ≥ 20 µM

----------
experimental-target: HLA-A*02:12
assay-name: IEDB peptide-MHC binding, purified MHC/direct/fluorescence; filed as Kd, often an IC50 or EC50 that approximates it; bounds were set here for any values at or beyond the usual limits of such assays
experimental-setup: source organism: Bacillus cereus 03BB108
pKd: −log10 of the molar value.
property: pKd

Q. Quick check: pKd of SYMLQGLRK ?
A. ≤ 4.70

----------
experimental-target: HLA-A*29:02
assay-name: IEDB peptide-MHC binding, purified MHC/direct/fluorescence; filed as Kd, often an IC50 or EC50 that approximates it; bounds were set here for any values at or beyond the usual limits of such assays
experimental-setup: source organism: Vibrio vulnificus YJ016
pKd: −log10 of the molar value.
property: pKd

Q. Quick check: pKd of MKYVWPPIM ?
A. ≤ 4.70

----------
experimental-target: HLA-A*24:02
assay-name: IEDB peptide-MHC binding, purified MHC/competitive/radioactivity; filed as Kd, often an IC50 or EC50 that approximates it; bounds were set here for any values at or beyond the usual limits of such assays
experimental-setup: source organism: Dengue virus 4 Thailand/0348/1991
property: pKd
Quick note: pKd values are minus log10 of concentrations in mol/L.

Q. Quick check: pKd of VWIEDNPNMI ?
A. 6.26

----------
experimental-target: HLA-A*03:01
assay-name: IEDB peptide-MHC binding, purified MHC/direct/fluorescence; filed as Kd, often an IC50 or EC50 that approximates it; bounds were set here for any values at or beyond the usual limits of such assays
experimental-setup: source organism: Francisella tularensis subsp. holarctica LVS
property: pKd
Quick note: pKd values are minus log10 of concentrations in mol/L.

Q. Quick check: pKd of KLYSYGIGY ?
A. 8.85

----------
experimental-target: HLA-B*58:01
assay-name: IEDB peptide-MHC binding, purified MHC/direct/fluorescence; filed as Kd, often an IC50 or EC50 that approximates it; bounds were set here for any values at or beyond the usual limits of such assays
experimental-setup: source organism: Cryptosporidium parvum
property: pKd
Quick note: pKd values are minus log10 of concentrations in mol/L.

Q. Quick check: pKd of KSFGRISVL ?
A. 7.75

----------
experimental-target: HLA-A*02:12
assay-name: IEDB peptide-MHC binding, purified MHC/competitive/fluorescence; filed as Kd, often an IC50 or EC50 that approximates it; bounds were set here for any values at or beyond the usual limits of such assays
experimental-setup: source organism: Cryptosporidium parvum Iowa II
property: Kd

Q. Quick check: Kd of KLYLRPWWH ?
A. ≥ 20 µM

----------
experimental-target: HLA-B*58:01
assay-name: IEDB peptide-MHC binding, purified MHC/direct/fluorescence; filed as Kd, often an IC50 or EC50 that approximates it; bounds were set here for any values at or beyond the usual limits of such assays
experimental-setup: source organism: Listeria monocytogenes
property: Kd

Q. Quick check: Kd of EIEIEKNKK ?
A. ≥ 20 µM
